- Measured target: Histamine N-methyltransferase (Cavia porcellus) (UniProt Q9EST2)
- Sequence (Q9EST2 whole entry): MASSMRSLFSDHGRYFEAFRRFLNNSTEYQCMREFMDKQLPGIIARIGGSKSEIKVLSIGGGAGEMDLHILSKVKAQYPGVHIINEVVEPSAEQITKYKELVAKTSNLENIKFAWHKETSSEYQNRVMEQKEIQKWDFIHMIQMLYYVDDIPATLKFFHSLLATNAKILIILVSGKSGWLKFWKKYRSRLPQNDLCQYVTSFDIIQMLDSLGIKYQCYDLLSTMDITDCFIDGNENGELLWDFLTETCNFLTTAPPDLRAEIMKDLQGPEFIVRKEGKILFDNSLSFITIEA
- Procedure details: Inhibition of guinea pig HMT at 0.2 mM by radiochemical technique
Assay readout: inhibition (%)
Numbers only, in %.

Some compounds with recorded inhibition:
Nc1ncnc2c1ncn2[C@@H]1O[C@H](CSCC(N)C(=O)O)[C@@H](O)[C@H]1O (single isomer, unassigned): 14
Nc1ncnc2c1ncn2[C@@H](CO)O[C@@H](CO)CSCC[C@H](N)C(=O)O: 0
Nc1ncnc2c1ncn2[C@@H](CO)O[C@@H](CO)CSC[C@@H](N)C(=O)O: 0
Nc1ncnc2c1ncn2[C@@H]1O[C@H](CSCC[C@H](N)C(=O)O)[C@@H](O)[C@H]1O [S-ADENOSYLHOMOCYSTEINE]: 40
Nc1ncnc2c1nnn2[C@@H](CO)O[C@@H](CO)CSCC[C@@H](N)C(=O)O: 0
Nc1nnnc2c1ncn2[C@@H](CO)O[C@@H](CO)CSCC[C@@H](N)C(=O)O: 0

Next, consider the following compound.
q: So what does the record say about inhibition for Nc1ncnc2c1ncn2[C@@H](CO)O[C@@H](CO)C[S+]([O-])CC[C@@H](N)C(=O)O (some centres not stated) ?
a: 0

###

- Measured target: Acetylserotonin O-methyltransferase (Bos taurus) (UniProt P10950)
- Sequence (P10950 whole entry): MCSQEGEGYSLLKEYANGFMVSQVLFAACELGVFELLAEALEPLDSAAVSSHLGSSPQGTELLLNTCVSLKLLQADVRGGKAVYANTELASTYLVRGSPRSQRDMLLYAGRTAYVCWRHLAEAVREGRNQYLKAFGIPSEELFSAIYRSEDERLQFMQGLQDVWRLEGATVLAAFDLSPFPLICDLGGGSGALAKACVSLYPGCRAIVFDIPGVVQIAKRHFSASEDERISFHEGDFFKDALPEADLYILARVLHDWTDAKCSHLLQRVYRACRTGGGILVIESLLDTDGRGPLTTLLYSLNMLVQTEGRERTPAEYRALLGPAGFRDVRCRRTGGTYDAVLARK
- Procedure details: Inhibition of bovine pineal gland HIOMT at 2 mM by radiochemical technique
Lab note: compare inhibition against 20%. Equal or greater, write label 1. Smaller, write label 0.

Known results for compounds:
Nc1ncnc2c1ncn2[C@@H](CO)O[C@@H](CO)C[S+]([O-])CC[C@@H](N)C(=O)O (stereo partly drawn): label 0
Nc1ncnc2c1ncn2[C@@H]1O[C@H](CSCCC(N)C(=O)O)[C@@H](O)[C@H]1O (single isomer, unassigned): label 0
C[S+](CC[C@@H](N)C(=O)O)C[C@H](CO)O[C@H](CO)n1cnc2c(N)ncnc21 (stereo partly drawn): label 0
Nc1ncnc2c1ncn2[C@@H](CO)O[C@@H](CO)CSCC[C@@H](N)C(=O)O: label 1
Nc1ncnc2c1ncn2[C@@H](CO)O[C@@H](CO)CSCC[C@H](N)C(=O)O: label 0

q: Kindly determine if inhibition recorded for Nc1ncnc2c1ncn2[C@@H]1O[C@H](CSCC[C@H](N)C(=O)O)[C@@H](O)[C@H]1O is above or exactly 20%.
a: label 1

q: Can you handle Nc1nnnc2c1ncn2[C@@H](CO)O[C@@H](CO)CSCC[C@@H](N)C(=O)O next?
a: label 1

q: What about this compound? Nc1ncnc2c1nnn2[C@@H]1O[C@H](CSCCC(N)C(=O)O)[C@@H](O)[C@H]1O (single isomer, unassigned)
a: label 1

###

What inhibition was measured for each of the following?
- Measured target: Catechol O-methyltransferase (Rattus norvegicus) (UniProt P22734)
- Sequence (whole entry): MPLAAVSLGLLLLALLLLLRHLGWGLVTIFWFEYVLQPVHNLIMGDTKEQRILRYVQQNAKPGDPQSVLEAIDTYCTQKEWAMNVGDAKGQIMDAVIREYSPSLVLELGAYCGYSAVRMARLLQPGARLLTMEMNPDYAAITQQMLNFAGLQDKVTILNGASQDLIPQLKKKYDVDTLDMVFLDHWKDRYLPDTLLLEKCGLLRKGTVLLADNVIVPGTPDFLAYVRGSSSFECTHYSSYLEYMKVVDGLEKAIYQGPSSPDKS
- Procedure details: Inhibition of Sprague-Dawley rat liver COMT at 2 mM by radiochemical technique
Numbers only, in %.

Some solved cases for reference:
Nc1ncnc2c1ncn2[C@@H]1O[C@H](CSCCC(N)C(=O)O)[C@@H](O)[C@H]1O (single isomer, unassigned): 22
Nc1ncnc2c1nnn2[C@@H](CO)O[C@@H](CO)CSCC[C@@H](N)C(=O)O: 17

Next:
q: Could you tell me which inhibition is on file for Nc1ncnc2c1ncn2[C@@H](CO)O[C@@H](CO)C[S+]([O-])CC[C@@H](N)C(=O)O (stereo partly drawn) ?
a: 22

###

- Measured target: Phenylethanolamine N-methyltransferase (Bos taurus) (UniProt P10938)
- Sequence (P10938 whole entry): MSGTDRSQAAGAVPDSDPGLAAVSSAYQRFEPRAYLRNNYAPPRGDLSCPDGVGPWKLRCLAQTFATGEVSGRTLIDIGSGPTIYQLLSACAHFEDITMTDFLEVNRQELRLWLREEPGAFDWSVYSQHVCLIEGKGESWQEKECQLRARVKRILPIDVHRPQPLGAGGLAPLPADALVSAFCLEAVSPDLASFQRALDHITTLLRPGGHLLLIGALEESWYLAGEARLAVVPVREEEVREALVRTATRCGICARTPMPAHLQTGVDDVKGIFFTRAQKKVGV
- Procedure details: Inhibition of bovine adrenal medulla PNMT at 2 mM by radiochemical technique
Assign inhibition to each entry below.
One number for each entry, in %.

Could you report inhibition for every entry in the following list?
1. Nc1nnnc2c1ncn2[C@@H](CO)O[C@@H](CO)CSCC[C@@H](N)C(=O)O
2. Nc1ncnc2c1ncn2[C@@H](CO)O[C@@H](CO)CSCC[C@@H](N)C(=O)O
3. Nc1ncnc2c1ncn2[C@@H](CO)O[C@@H](CO)CSCC[C@H](N)C(=O)O
4. Nc1ncnc2c1ncn2[C@@H]1O[C@H](CSCC[C@H](N)C(=O)O)[C@@H](O)[C@H]1O
5. C[S+](CC[C@@H](N)C(=O)O)C[C@H](CO)O[C@H](CO)n1cnc2c(N)ncnc21 (stereo partly drawn)
6. Nc1ncnc2c1ncn2[C@@H]1O[C@H](CSCC(N)C(=O)O)[C@@H](O)[C@H]1O (single isomer, unassigned)
7. Nc1ncnc2c1nnn2[C@@H](CO)O[C@@H](CO)CSCC[C@@H](N)C(=O)O

a:
15
16
0
92
21
27
10

q: Quick one: inhibition of Nc1ncnc2c1ncn2[C@@H](CO)O[C@@H](CO)C[S+]([O-])CC[C@@H](N)C(=O)O (stereo partly drawn) ?
a: 17

###

- Procedure details: Retardation factor, Rf of the compound on silica gel GF containing EtOH-HOAc-H2O (20:2:2)/0.1 M phosphate buffer at 7.4 by chromatography
- Format: physicochemical
- Condition label: pH 7.4
The threshold is 0.7. Values of Rf beneath it are tagged class 1; values meeting or exceeding it are tagged class 0.

The following compounds have reported results that may help.
Nc1ncnc2c1ncn2[C@@H](CO)O[C@@H](CO)CSC[C@@H](N)C(=O)O: class 0
Nc1ncnc2c1ncn2[C@@H](CO)O[C@@H](CO)C[S+]([O-])CC[C@@H](N)C(=O)O (stereo partly drawn): class 0
C[S+](CC[C@H](N)C(=O)[O-])C[C@H]1O[C@@H](n2cnc3c(N)ncnc32)[C@H](O)[C@@H]1O (stereo partly drawn) [ADEMETIONINE]: class 1
Nc1nnnc2c1ncn2[C@@H]1O[C@H](CSCCC(N)C(=O)O)[C@@H](O)[C@H]1O (single isomer, unassigned): class 0
Nc1ncnc2c1nnn2[C@@H](CO)O[C@@H](CO)CSCC[C@@H](N)C(=O)O: class 1
Nc1nnnc2c1ncn2[C@@H](CO)O[C@@H](CO)CSCC[C@@H](N)C(=O)O: class 1
Nc1ncnc2c1ncn2[C@@H]1O[C@H](C[S+]([O-])CC[C@@H](N)C(=O)O)[C@@H](O)[C@H]1O (stereo partly drawn): class 0
Nc1ncnc2c1ncn2[C@@H]1O[C@H](CSCC[C@H](N)C(=O)O)[C@@H](O)[C@H]1O [S-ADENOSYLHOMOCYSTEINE]: class 0
C[S+](CC[C@@H](N)C(=O)O)C[C@H](CO)O[C@H](CO)n1cnc2c(N)ncnc21 (stereo partly drawn): class 1

q: Consider the compound Nc1ncnc2c1ncn2[C@@H]1O[C@H](CSCC(N)C(=O)O)[C@@H](O)[C@H]1O (single isomer, unassigned) . Is its Rf strictly less than 0.7?
a: class 0

###

- Measured target: Histamine N-methyltransferase (Cavia porcellus)
- Procedure details: Inhibition of guinea pig HMT at 0.2 mM by radiochemical technique
Assay readout: inhibition (%)
One number for each entry, in %.

# batch size: 4; output inhibition per entry
1. Nc1ncnc2c1ncn2[C@@H]1O[C@H](C[S+]([O-])CC[C@@H](N)C(=O)O)[C@@H](O)[C@H]1O (some centres undefined)
2. Nc1ncnc2c1ncn2[C@@H]1O[C@H](CSCCC(N)C(=O)O)[C@@H](O)[C@H]1O (single isomer, unassigned)
3. Nc1ncnc2c1ncn2[C@@H](CO)O[C@@H](CO)CSCC[C@@H](N)C(=O)O
4. C[S+](CC[C@@H](N)C(=O)O)C[C@H](CO)O[C@H](CO)n1cnc2c(N)ncnc21 (some centres undefined)

a:
[0, 73, 0, 0]

###

Please respond with reported inhibition for every item in the list.
- Measured target: Catechol O-methyltransferase (Rattus norvegicus) (UniProt P22734)
- Sequence (whole entry): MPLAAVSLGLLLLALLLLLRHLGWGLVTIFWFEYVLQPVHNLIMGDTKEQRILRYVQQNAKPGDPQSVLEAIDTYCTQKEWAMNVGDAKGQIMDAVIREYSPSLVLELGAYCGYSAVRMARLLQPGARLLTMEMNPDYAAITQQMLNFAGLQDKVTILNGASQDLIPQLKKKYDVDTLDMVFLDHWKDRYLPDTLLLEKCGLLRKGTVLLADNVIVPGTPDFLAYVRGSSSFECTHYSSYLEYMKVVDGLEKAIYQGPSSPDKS
- Procedure details: Inhibition of Sprague-Dawley rat liver COMT at 0.2 mM by radiochemical technique
Answers are plain numbers, in %.

Recorded inhibition, per entry:
Nc1ncnc2c1ncn2[C@@H]1O[C@H](CSCCC(N)C(=O)O)[C@@H](O)[C@H]1O (single isomer, unassigned): 5
Nc1ncnc2c1ncn2[C@@H](CO)O[C@@H](CO)CSCC[C@H](N)C(=O)O: 2

// batch mode: one inhibition value per listed entry
1. Nc1nnnc2c1ncn2[C@@H](CO)O[C@@H](CO)CSCC[C@@H](N)C(=O)O
2. Nc1ncnc2c1ncn2[C@@H](CO)O[C@@H](CO)CSCC[C@@H](N)C(=O)O

a:
[4, 0]

// for each molecule below, give its inhibition
1. C[S+](CC[C@@H](N)C(=O)O)C[C@H](CO)O[C@H](CO)n1cnc2c(N)ncnc21 (stereo partly specified)
2. Nc1ncnc2c1ncn2[C@@H]1O[C@H](C[S+]([O-])CC[C@@H](N)C(=O)O)[C@@H](O)[C@H]1O (stereo partly specified)
3. Nc1ncnc2c1nnn2[C@@H](CO)O[C@@H](CO)CSCC[C@@H](N)C(=O)O
4. Nc1ncnc2c1ncn2[C@@H]1O[C@H](CSCC[C@H](N)C(=O)O)[C@@H](O)[C@H]1O
5. Nc1ncnc2c1ncn2[C@@H](CO)O[C@@H](CO)CSC[C@@H](N)C(=O)O
6. Nc1ncnc2c1ncn2[C@@H](CO)O[C@@H](CO)C[S+]([O-])CC[C@@H](N)C(=O)O (stereo partly specified)

a:
1. 7
2. 14
3. 0
4. 39
5. 0
6. 5

q: Any idea what inhibition was measured for Nc1ncnc2c1ncn2[C@@H]1O[C@H](CSCC(N)C(=O)O)[C@@H](O)[C@H]1O (single isomer, unassigned) ?
a: 0
